- tested on: Dimer of Gag-Pol polyprotein [489-587,Q496K] (Human immunodeficiency virus 1, UniProt P12497, Q496K)
- Construct: 489-587
- protocol summary: Protease Inhibition Assay
- experimental context: pH 5.5; 30 °C
- Protocol: Assay of HIV protease inhibition was performed by peptide cleavage using the substrate Val-Ser-Gln-Asn-beta-naphthylalanine*Pro-Ile-Val. Products of the cleavage reaction were quantified by HPLC detection, and data were fit to nonlinear least squares equations for determination of steady-state Michaelis-Menten kinetics.
observable: IC50 (nM)
One number for each entry, in nM.

Give the measured IC50 of "O=C(N[C@H]1c2ccccc2OC[C@H]1O)[C@H](Cc1cccnc1)C[C@H](O)CN1CCN(Cc2ccc(-c3ccccc3)o2)C[C@H]1C(=O)NCC(F)(F)F" . 0.02
